System: K562
Test: NCI tumour cell line growth inhibition, 48 h
Active and inactive are the calls of the source. No stated cut-off is given here; in the data, active = GI50 up to about 1.1 µM and inactive = higher.
Possible outcomes: yes (active), no (inactive)

compound | classification
COc1ccccc1-c1cc(=O)c2ccc(OC)c(OC)c2o1 | no
COc1ccc(C(CC(=O)c2ccccc2)C(=O)c2ccc3c(c2)OCO3)cc1 (centres undefined) | no
Cc1ccc2c(c1)C(=O)/C(=C\c1ccccc1)CCS2(=O)=O | no
O=C1Nc2ccccc2/C1=N/Nc1c(F)c(F)c(F)c(F)c1F | no
CCCCCCCCCCCCCCCCCCNc1nc(=O)n(C2CC(OP(=O)(O)OCC3OC(n4cc(F)c(=O)[nH]c4=O)CC3O)C(CO)O2)cc1F (centres undefined) | no
Cc1cccc(NC(=O)c2cc3cc(/N=N/c4ccccc4Cl)ccc3oc2=O)c1 | no
CC(C)(C)OC(=O)C1C(=O)NC(=O)CC1CC(OCc1ccccc1)C(COCc1ccccc1)OCc1ccccc1 (centres undefined) | no
CC(=O)Nc1ccc(C(=O)N2N=C(C)/C(=C\c3c(O)ccc4ccccc34)C2=O)cc1 | no
O=S(=O)(c1ccc(NC(=S)N/N=C/c2ccccc2O)cc1)N1CCCCC1 | yes

From: ChEMBL document CHEMBL1201862
